Assay: yeast display, Sf9 membrane polyspecificity reagent, FACS + sequencing; frameworks hold sequencing errors
measured-endpoint: polyreactivity (PSR sort gate)

Guide cases for polyreactivity (PSR sort gate), answers given:
QVQLVESGGGLVQAGGSLRLSCAASVSIFGPYAKGWYRQAPGKERDLDAAISRGSRTNYADSVKGLFTISRDNEKNTVYLQMNSLKPEDTAVYYCAARYVWRSTHHRGSTYDYWRQGTQVTVSS | high polyreactivity
QVQLVESGGGLVQAGGSLRLSCAASGLAFVFNAMGWYRQAPGKERELVAAISSGDDTNYADSVKGRFTISRDNAKNTVYLQMNSLKPEDTAVYNCAKTSDPIKRPYYYWGQGTQVTVSS | low polyreactivity
QVQLVESGGGLVQAGGSLRLSCAASGFIIVRYAMGWYRQAPGKERELVAAITRSGGSTYYADSVKGRFTISRDNAKNTVYLQMNSLKPEDTAVYYCNAYRQGFTYARMDYWGQGTQVTVSS | high polyreactivity
QDQLVESCGGLVQAGGSLRLSCAASGRTFYRYAMGWYIQAPGKERELVADITRRVGITHYADSVKGRFTISRDYAKNTVYLKMNSLKPEDTAVYYCAARKYGSRYRLKYDYWGQGTQVTVSS | high polyreactivity
QVQLVESGGGLVQAGGSLRLSCAASGFIFGTYAMGWYRQAPGKERELVAAISVGGGSTYYADSVKGRFTISRDKAKNTVYLQMNSLKPEDTADYYCAAVQLYQKHQITYVAHEYWGQGTQVTVSS | low polyreactivity
QVKLVETGGGLVQAGGSLRLSSAASGTTFVHYDMGWYRQAPGNERELVAAISRSGASTYYADSVKGRFTISRDHAKNTVYLQMNSLKPDDTAVYYCATIKYYGRRFNYWGQGTQVTVSS | high polyreactivity

For the next question, use this sequence.
Query string: Given `QVHLVESGGGLVQAGGSLRLSCAASGIIFYYNAMGWYRQAPGKERELVAVISSAGNTNYADSVKGRFTISRDNAKNTVYLQMNCLKPEDTAVYYCAAGTISRIDERNYFKMDYWGQGTQVTVSS` , state its recorded polyreactivity (PSR sort gate).
Result string: low polyreactivity

* * *

Assay: yeast display, Sf9 membrane polyspecificity reagent, FACS + sequencing; frameworks hold sequencing errors
measured-endpoint: polyreactivity (PSR sort gate)

Recorded results for 10 sequences are shown here.
QVQLGESGGGLVQAGGSLSLSCAASGSIFRNYAMGWYRPAPGKEWELVAAITRGGPTNYADSVKGRVTISRDHAKNTVYLQMNRQKPEDTAVYYCNAAWRLGWTHWETTRYVYWGQGTHVTVSS | high polyreactivity
QVQLVESGGGLVQAGGSLRLSGAASGFIFIGYTMGWYRQAPGKAWELVATISLGDDSTYYADSVKGRFTISRDNAKNTVYLQMNSLKPEDTAVYYCAGDQKDGTTSAYDYCGQGTQVTVSS | low polyreactivity
QVQHVESGGGLVQAGGSHRLSCAASGSTFGSNDMRWYRQSPGKERQLVAAIRGIVGSTYYADSVKGRFTISRDHAKNTVYLQMNSLKPEDTAVYYCNKAEVSTYYQSSSTYGGYDYWGQGTQVTVSS | low polyreactivity
QVQLVESGGGLVQAGGSLRLSCAASGFTFVDYAMGWYRQAPGKERELVAAISSSGDSTYYADSVKGRFTISRDNAKITVYLQMNSLKPEDTAVYYCAAEYDREEYSGYDYWGQGTQVTVSS | low polyreactivity
QVHLEESGGGLVQAGGSLRLSSAASGSNFDYNAMGWYRQAPGKERELVAAISRTGGRTYYADSVKGRFTISRDNAKNTVYLQMNSLKPEDTAVYYWNAVNRIGGGDYDYWGLGTQVTVSS | low polyreactivity
QVQLVESGGGLVQAGGSLRLSCAASGRIFTYYAMGWYRQAPGKERELVASITGSGGSTDYADSVKGRFTISLDNAKNTVYLQMNSLKPEDTAVYYCAADHSGVSRYDYWGQGTQVTVSS | low polyreactivity
QVQLVESGGGLVQAGGSLRLSCAASGFTFVVYAMGWYSQAPGKERELVARITWSGGSTYYADSVKGRFTISRDNAKNTVYLQMNSLKPEDTAVYDCNTRRYPYDGIEHDYWGQGTQVTVSS | low polyreactivity
QVQLVESGGGLVQAGGSLRLSCAASGITLSYYAMGWYGPAPGKERELVAAISSNGGRTYYADSVMGRFTISRDNAKNTVYLQMNSLKPEDTAVYYCAARVYDYPRFGYWGQGTQVTVSS | high polyreactivity
QVQLVESGGGLDQAGGSLRLSCAASGRISIRNAMGWYRQAPGKETELVAAISRSGGSTYYADSLKGRFTISRDNAKNTVYLQMNSLKPEDTAVYYCAARGYSTYPMDYWGQGTQVTVSS | high polyreactivity
QVQLVESGGGLVQAGGSLRLSCAASGRIFGSYVMGWYRQAPGKERELVAAISRRGGSTYYADSVKGRFTISRDNAKNTVYLQMNSLKPEDTAVDYCAAEFSPSSNPYDYWGQGTQVTVSS | high polyreactivity

Query string: Which polyreactivity (PSR sort gate) value is on record for `QVQLVESGGGLVQAGGSLRLSCAASGSIFNYNDMGWYRQAPGKERELVAAIDSSGTSTYYADSVKGRFTISRDNAKNTVYLQMTSLKPEDTAVYYCNADYRGWGYHMDYWGQGTQVTVSS` ?
Result string: low polyreactivity
